read-out: Cytochrome P450 7A1 (Homo sapiens) (UniProt P22680); test: LTEA_HepaRG_CYP7A1: Life Technologies and Expression Analysis (LTEA) Assay for Cytochrome P450 7A1 (CYP7A1) using HepaRG (AID 2283496); conditions: mRNA level, 48 h; actives raise or lower the signal
Activity calls are given as the source filed them. How the source made its calls: active means hit-call score of the fitted dose curve at least 0.9, where 1 is the maximum; inactive means score below 0.9.
Result category, one only: active, inactive

Which outcome did this test record for the compound CCCCCCCCCCC ?
inactive

Which outcome did this test record for the compound CN1CCCC1=O ?
inactive

Which outcome did this test record for the compound OC[C@@H](O)[C@@H](O)[C@H](O)[C@H](O)CO ?
inactive

Which outcome did this test record for the compound CCCCOC(=O)CCCCCCCCC(=O)OCCCC ?
inactive

Which outcome did this test record for the compound Cc1ccc2ncccc2c1 ?
inactive

Which outcome did this test record for the compound C=CCc1ccc(O)c(OC)c1 ?
inactive

Which outcome did this test record for the compound CC(C)c1ccc(C(=O)N=C(N)N)cc1S(C)(=O)=O ?
inactive

Which outcome did this test record for the compound CCCCCCOCCO ?
inactive

Which outcome did this test record for the compound CC(=O)OC/C=C(\C)CCC=C(C)C ?
inactive

Which outcome did this test record for the compound Nc1ccc2c(c1)C(=O)c1ccccc1C2=O ?
active

* * *

Molecular target: Bile acid receptor (Homo sapiens) (UniProt Q96RI1)
Sequence (Q96RI1 whole entry, looked up): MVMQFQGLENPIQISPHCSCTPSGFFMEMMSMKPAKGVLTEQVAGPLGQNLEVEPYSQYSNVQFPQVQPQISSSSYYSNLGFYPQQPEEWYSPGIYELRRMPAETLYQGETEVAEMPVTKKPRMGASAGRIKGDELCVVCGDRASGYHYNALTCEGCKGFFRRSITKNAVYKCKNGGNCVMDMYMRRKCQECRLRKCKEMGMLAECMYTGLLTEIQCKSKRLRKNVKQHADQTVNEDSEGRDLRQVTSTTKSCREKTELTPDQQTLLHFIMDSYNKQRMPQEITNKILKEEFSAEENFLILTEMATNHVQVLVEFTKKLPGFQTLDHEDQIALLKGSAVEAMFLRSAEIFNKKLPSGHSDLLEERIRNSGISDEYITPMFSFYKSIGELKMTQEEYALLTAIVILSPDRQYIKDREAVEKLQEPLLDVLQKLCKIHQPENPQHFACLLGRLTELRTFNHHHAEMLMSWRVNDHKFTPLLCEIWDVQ
Test: OT_FXR_FXRSRC1_0480: Odyssey Thera (OT) 8-hour HEK293T Protein-Complementation Assay for Farnesoid X receptor/SRC-1 Co-activator (AID 2283383)
Method: OT_FXR_FXRSRC1_0480 is a cell-based assay that uses HEK293T, a human kidney cell line, with measurements taken at 8 hours after chemical dosing in a 384-well plate.OT_FXR_FXRSRC1_0480 is one of one assay component(s) measured or calculated from the OT_FXR_FXRSRC1_0480 assay. […] This assay endpoint, OT_FXR_FXRSRC1_0480, was analyzed in the positive analysis fitting direction relative to DMSO as the negative control and baseline of activity. […]
Inconclusive results are not listed. Active and inactive are the calls of the source. The calls were made as follows: active = hit-call score of the fitted dose curve at least 0.9, where 1 is the maximum; inconclusive = response in the unintended direction; inactive = score below 0.9.
Result category, one only: true (active), false (inactive)

Here's what some known entries look like.
CCCCCCCCCCCC(=O)OC | false
COc1cc(C=O)ccc1O | false
Oc1ccc2ccccc2c1N=Nc1ccccc1 | true

Which outcome did this test record for the compound CCc1c(C(=O)NN2CCCCC2)nn(-c2ccc(Cl)cc2Cl)c1-c1ccc(Br)cc1 ?
false

* * *

read-out: Keratin 19 (KRT19), KRT19 (gene 3880); experiment: LTEA_HepaRG_KRT19: Life Technologies and Expression Analysis (LTEA) Assay for Keratin 19 (KRT19) using HepaRG (AID 2283512); conditions: mRNA level, 48 h; actives raise or lower the signal
Active and inactive are the calls of the source. Rule for the calls: active = hit-call score of the fitted dose curve at least 0.9, where 1 is the maximum; inactive = score below 0.9.
Result category, one only: active, inactive

OC[C@@H](O)[C@@H](O)[C@H](O)[C@H](O)CO | inactive
CCCCCCCCCCCC(=O)OC | inactive
CC(=O)OCCOCCOCCOC(C)=O | inactive
COc1cc(C=O)ccc1O | inactive

Which outcome did this test record for the compound CC1=C(/C=C/C(C)=C/C=C/C(C)=C/CO)C(C)(C)CCC1 ?
inactive

Which outcome did this test record for the compound O=c1[nH]cc(F)c(=O)[nH]1 ?
inactive

Which outcome did this test record for the compound CCCCc1ccc2c(n1)[C@@H](c1ccc(OC)cc1C[C@H](C)C(=O)O)[C@H](C(=O)O)[C@H]2c1ccc2c(c1)OCO2 ?
inactive

Which outcome did this test record for the compound COc1ccc(C)cc1N ?
inactive

Which outcome did this test record for the compound CN1CCN(Cc2cc(-c3ccc4[nH]c(=O)oc4c3)co2)[C@@H](c2ccc(F)cc2)C1 ?
active

Which outcome did this test record for the compound Cc1ccc(N(C)C)cc1 ?
inactive

Which outcome did this test record for the compound COCCOCCOC ?
inactive

Which outcome did this test record for the compound O=C(O)Cc1ccccc1Nc1c(Cl)cccc1Cl ?
inactive

Which outcome did this test record for the compound CN1CCCC1=O ?
inactive

Which outcome did this test record for the compound C1CCC(SSC2CCCCC2)CC1 ?
inactive

Which outcome did this test record for the compound Cc1cc(=O)[nH]c(=S)[nH]1 ?
inactive

Which outcome did this test record for the compound CCCCOC(=O)CCCCCCCCC(=O)OCCCC ?
inactive

Which outcome did this test record for the compound O=c1c(O)c(-c2ccc(O)c(O)c2)oc2cc(O)cc(O)c12 ?
inactive
